- testName: inhibitors of TNFa-induced NFkB p65 translocation, primary screen, imaging, HUVEC, MLSMR starter and 10KST1 sets (AID 438);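 note: compound added about 3h40 before a 20 min TNFalpha stimulation; signal is the nuclear over cytoplasmic p65 intensity ratio per well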
- particulars: HUVEC TNFa-induced p65 nuclear translocation; at 2 µM, stronger effect = higher value, 0% TNFa-plus-vehicle, 100% no-TNFa wells

- molecule: "CC1(C)CC(=O)C2=C(C1)Nc1nc(SCCN3CCOCC3)[nH]c(=O)c1C2c1cccs1 (stereo not given)"
  inhibition, %: -8.4
- molecule: "CC1(C)CC(=O)C(C=NCc2ccc3c(c2)OCO3)=C(O)C1"
  inhibition, %: -29.5
- molecule: "COc1ccc(CCNC(=O)COc2ccc(S(=O)(=O)N3CCOCC3)cc2)cc1"
  inhibition, %: -17.6
- molecule: "NC(=O)C1CCN(CC(=O)N2c3ccccc3CCc3ccccc32)CC1"
  inhibition, %: -16.8
- molecule: "COc1ccc(NC(=O)c2oc3ccccc3c2NC(=O)c2ccco2)cc1"
  inhibition, %: -4.8
- molecule: "CCOc1nc(-c2ccccc2O)nc2ccccc12"
  inhibition, %: -3.1
- molecule: "Cc1ccc(Cn2c(C(=O)NCCCN3CCOCC3)cc3sccc32)cc1"
  inhibition, %: -5.9
- molecule: "CCOC(OCC)P(=O)(C(C)C)C(C)C"
  inhibition, %: 6
- molecule: "Cc1c(N=C2SCC(=O)N2c2c(C)n(C)n(-c3ccccc3)c2=O)c(=O)n(-c2ccccc2)n1C"
  inhibition, %: 4.1
- molecule: "Cc1ccc(C)c(N2CCN(CCCNC(=O)Cn3cc4c(n3)CCC(C)C4)CC2)c1 (stereo not given)"
  inhibition, %: 9.9

====

- testName: endothelial E-selectin expression blockers – imaging, HUVEC, immunofluorescence, MLSMR starter and 10KST1 sets, primary screen (AID 487);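 note: 100% = median nuclei count of all wells on the same plate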
- particulars: HUVEC TNFalpha-induced E-selectin immunofluorescence imaging, at 2 µM; measured here: cell number, toxicity

- compound: "O=C(c1ccc(S(=O)(=O)N2CCOCC2)cc1)N1CCc2ccccc2C1"
  unitAbbreviation: "%"
  nuclei count: 118
- compound: "COC(=O)c1ccccc1NC(=O)c1noc2c1CCC2"
  unitAbbreviation: "%"
  nuclei count: 120
- compound: "O=C(CC(Cc1ccccc1)C(=O)O)NCCc1ccc2c(c1)OCO2 (configuration not stated)"
  unitAbbreviation: "%"
  nuclei count: 145
- compound: "CC1=Nn2c(nnc2-c2ccccc2)SC1"
  unitAbbreviation: "%"
  nuclei count: 108
- compound: "COc1ccc(NC(=O)N2CCC(c3nc(-c4cccs4)no3)CC2)cc1"
  unitAbbreviation: "%"
  nuclei count: 102
- compound: "C/C(Cl)=C\\Cn1c(Nc2ccc(C)cc2)nc2c1c(=O)n(C)c(=O)n2C"
  unitAbbreviation: "%"
  nuclei count: 117
- compound: "CCCC(=O)Nc1ccc(NC(=O)C2CC2)cn1"
  unitAbbreviation: "%"
  nuclei count: 112
- compound: "CCOC(=O)c1[nH]c(C)c(C(=O)N2CCN(c3ccc(F)cc3)CC2)c1C"
  unitAbbreviation: "%"
  nuclei count: 119
- compound: "CCOC(=O)c1ccccc1NC1CC(=O)N(c2ccccc2C)C1=O (configuration not stated)"
  unitAbbreviation: "%"
  nuclei count: 94.8
- compound: "CCOc1ccc(NC(=O)CN2CCN(CC(=O)c3ccc(OCC)cc3)CC2)cc1"
  unitAbbreviation: "%"
  nuclei count: 112
- compound: "CCOc1ccccc1N1C(=O)c2ccc(C(=O)Nc3cccnc3)cc2C1=O"
  unitAbbreviation: "%"
  nuclei count: 109
- compound: "O=C1NC(c2ccccc2)(C(F)(F)F)SC2=CCCCCN12 (configuration not stated)"
  unitAbbreviation: "%"
  nuclei count: 111
- compound: "COc1ccc(CNC(=O)CCc2nc(-c3ccccc3F)no2)c(OC)c1"
  unitAbbreviation: "%"
  nuclei count: 86.3
- compound: "CC(OC(=O)c1cccc(NS(C)(=O)=O)c1)C(=O)Nc1ccc(N2CCOCC2)cc1 (configuration not stated)"
  unitAbbreviation: "%"
  nuclei count: 148
- compound: "CCSC1(SCC)N=C(N)C2(C#N)C(c3ccccc3)NC(C)=C(C)C12C#N (configuration not stated)"
  unitAbbreviation: "%"
  nuclei count: 120
- compound: "O=C1c2ccccc2C(=O)N1c1cccc(-c2nc3ccccc3o2)c1"
  unitAbbreviation: "%"
  nuclei count: 130
- compound: "COc1cc(CO)cc(-c2cc(CO)cc(OC)c2OC)c1OC"
  unitAbbreviation: "%"
  nuclei count: 60.6
- compound: "O=C(c1cccs1)N(Cc1ccco1)Cc1cc2ccccc2[nH]c1=O"
  unitAbbreviation: "%"
  nuclei count: 84.3
- compound: "O=C(NC1CCCCC1)C(c1ccc(Cl)cc1)N(C(=O)c1cnccn1)c1ccc2c(c1)OCO2 (configuration not stated)"
  unitAbbreviation: "%"
  nuclei count: 110
- compound: "CCCC(=O)Nc1cc(-c2nnc(OC)c3ccccc23)ccc1N1CCOCC1"
  unitAbbreviation: "%"
  nuclei count: 112
- compound: "COc1cccc(N2CCN(CC(=O)c3c[nH]c4ccc(OC)cc34)CC2C)c1 (configuration not stated)"
  unitAbbreviation: "%"
  nuclei count: 103
- compound: "COc1ccc2cc(CN(CCO)C(=O)c3ccc(Br)cc3)c(=O)[nH]c2c1"
  unitAbbreviation: "%"
  nuclei count: 118
